Data provenance is patent US20260242478A1.

Parameter Anti-CD28 Fab (SEQ ID NOs: 696, 697) signal: see the listing below.
# STUDY TARGET: Anti-CD28 Fab (SEQ ID NOs: 696, 697)
# Sequence (VH, as listed by the source, chain 1 of 2): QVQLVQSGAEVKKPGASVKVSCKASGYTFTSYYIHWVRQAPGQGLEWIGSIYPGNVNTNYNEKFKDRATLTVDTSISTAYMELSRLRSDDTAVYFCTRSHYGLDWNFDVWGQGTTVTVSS
# Sequence (VL, as listed by the source, chain 2 of 2): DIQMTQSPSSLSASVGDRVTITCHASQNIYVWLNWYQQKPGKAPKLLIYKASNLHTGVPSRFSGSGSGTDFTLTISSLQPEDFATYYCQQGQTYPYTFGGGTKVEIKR
# ASSAY INFO: phage binding ELISA; biotinylated anti-CD28 Fab on neutravidin plate, clonal phage supernatant, anti-M13 HRP detection;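 further: wells pretreated with blocking buffer, either plus or minus CD28 antigen, then given crude phage supernatant briefly without washing in between, then washed before anti-M13 HRP readout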
Output spec: single numeric token, no unit.

[
  {
    "BINDER": "SCKPGVANYWPWCL [Phage-1364 peptide (Peptide-92 library sequence, SEQ ID NO: 1660)]",
    "QUANTITATIVE READOUT": 2.29
  },
  {
    "BINDER": "MCSAGAMYSWPLCL [Phage-1365 peptide (Peptide-92 library sequence, SEQ ID NO: 1661)]",
    "QUANTITATIVE READOUT": 2.29
  },
  {
    "BINDER": "TCSAGASYPWPLCL [Phage-1363 peptide (Peptide-92 library sequence, SEQ ID NO: 1659)]",
    "QUANTITATIVE READOUT": 2.29
  }
]

Turning now to a further record.
Q) Given the binder TCAAGATYPWPSCL [Phage-1371 peptide (Peptide-92 library sequence, SEQ ID NO: 1667)] , what is its reported Anti-CD28 Fab (SEQ ID NOs: 696, 697) signal?
A) 2.25
